B1: library; a variant is named by its letters at N, in order (parent)
chain: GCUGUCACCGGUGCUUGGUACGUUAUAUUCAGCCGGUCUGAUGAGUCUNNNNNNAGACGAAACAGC

# Variants of: B1
# Method summary: normalized RNA/DNA level without ligand (relative to sTRSVctl = 100) (log10 (% of sTRSVctl)); HEK293T overexpressing SLC46A1; higher = less ribozyme self-cleavage, higher mRNA level
# Measurement conditions: without (6R,S)-folinic acid; ligand present: no
Consider the following variants; for each one, report its normalized RNA/DNA level without ligand (log10).
Answer with the value's number alone.

Problem: May I ask what normalized RNA/DNA level without ligand (log10) has been recorded for GCUGUCACCGGUGCUUGGUACGUUAUAUUCAGCCGGUCUGAUGAGUCUUCGAGUAGACGAAACAGC [UCGAGU] ?
Result: 1.97

Problem: Same question for GCUGUCACCGGUGCUUGGUACGUUAUAUUCAGCCGGUCUGAUGAGUCUGCGCAGAGACGAAACAGC [GCGCAG] please.
Result: 2

Problem: Also need GCUGUCACCGGUGCUUGGUACGUUAUAUUCAGCCGGUCUGAUGAGUCUCGUGAGAGACGAAACAGC [CGUGAG] , thanks.
Result: 1.97

Problem: Follow-up entry: GCUGUCACCGGUGCUUGGUACGUUAUAUUCAGCCGGUCUGAUGAGUCUAUAUGAAGACGAAACAGC [AUAUGA]
Result: 1.98

Problem: Also, GCUGUCACCGGUGCUUGGUACGUUAUAUUCAGCCGGUCUGAUGAGUCUUAGCUUAGACGAAACAGC [UAGCUU] please.
Result: 2

Problem: Then what about the variant GCUGUCACCGGUGCUUGGUACGUUAUAUUCAGCCGGUCUGAUGAGUCUACCCCGAGACGAAACAGC [ACCCCG] ?
Result: 2

Problem: And then GCUGUCACCGGUGCUUGGUACGUUAUAUUCAGCCGGUCUGAUGAGUCUAUCACGAGACGAAACAGC [AUCACG] , what is it?
Result: 1.97

Problem: Record: GCUGUCACCGGUGCUUGGUACGUUAUAUUCAGCCGGUCUGAUGAGUCUAGCCAUAGACGAAACAGC [AGCCAU]
Result: 1.99

Problem: What do we get for GCUGUCACCGGUGCUUGGUACGUUAUAUUCAGCCGGUCUGAUGAGUCUUCUAUUAGACGAAACAGC [UCUAUU] ?
Result: 2.05

Problem: Next: GCUGUCACCGGUGCUUGGUACGUUAUAUUCAGCCGGUCUGAUGAGUCUCUUGGUAGACGAAACAGC [CUUGGU]
Result: 2.01

Problem: And for GCUGUCACCGGUGCUUGGUACGUUAUAUUCAGCCGGUCUGAUGAGUCUAAGCGAAGACGAAACAGC [AAGCGA] ?
Result: 1.95

Problem: Do the same for GCUGUCACCGGUGCUUGGUACGUUAUAUUCAGCCGGUCUGAUGAGUCUCGCUAAAGACGAAACAGC [CGCUAA] please
Result: 1.97

Problem: Repeat for the following variant: GCUGUCACCGGUGCUUGGUACGUUAUAUUCAGCCGGUCUGAUGAGUCUAGGUGUAGACGAAACAGC [AGGUGU]
Result: 1.95

Problem: Queued: GCUGUCACCGGUGCUUGGUACGUUAUAUUCAGCCGGUCUGAUGAGUCUCAUCAAAGACGAAACAGC [CAUCAA]
Result: 1.98

Problem: Same for GCUGUCACCGGUGCUUGGUACGUUAUAUUCAGCCGGUCUGAUGAGUCUGAUACAAGACGAAACAGC [GAUACA]
Result: 1.97

Problem: Param item: GCUGUCACCGGUGCUUGGUACGUUAUAUUCAGCCGGUCUGAUGAGUCUGCAUUUAGACGAAACAGC [GCAUUU]
Result: 2.03

Problem: And what about the variant GCUGUCACCGGUGCUUGGUACGUUAUAUUCAGCCGGUCUGAUGAGUCUAGAAGCAGACGAAACAGC [AGAAGC] ?
Result: 2

Problem: Okay, and GCUGUCACCGGUGCUUGGUACGUUAUAUUCAGCCGGUCUGAUGAGUCUAUGCUUAGACGAAACAGC [AUGCUU] ?
Result: 2.01

Problem: # iterate: GCUGUCACCGGUGCUUGGUACGUUAUAUUCAGCCGGUCUGAUGAGUCUGGCGACAGACGAAACAGC [GGCGAC]
Result: 2

Problem: And for GCUGUCACCGGUGCUUGGUACGUUAUAUUCAGCCGGUCUGAUGAGUCUCUUUACAGACGAAACAGC [CUUUAC] ?
Result: 2.02

Problem: Next up: GCUGUCACCGGUGCUUGGUACGUUAUAUUCAGCCGGUCUGAUGAGUCUGACACUAGACGAAACAGC [GACACU]
Result: 2.03

Problem: Then GCUGUCACCGGUGCUUGGUACGUUAUAUUCAGCCGGUCUGAUGAGUCUACACUUAGACGAAACAGC [ACACUU] ?
Result: 2

Problem: What do you have for GCUGUCACCGGUGCUUGGUACGUUAUAUUCAGCCGGUCUGAUGAGUCUCACUAGAGACGAAACAGC [CACUAG] ?
Result: 1.95

Problem: Now give it for GCUGUCACCGGUGCUUGGUACGUUAUAUUCAGCCGGUCUGAUGAGUCUGUUUCAAGACGAAACAGC [GUUUCA] too.
Result: 2.03

Problem: Follow-up entry: GCUGUCACCGGUGCUUGGUACGUUAUAUUCAGCCGGUCUGAUGAGUCUUACUCCAGACGAAACAGC [UACUCC]
Result: 2.05

Problem: What about this variant? GCUGUCACCGGUGCUUGGUACGUUAUAUUCAGCCGGUCUGAUGAGUCUAUACGUAGACGAAACAGC [AUACGU]
Result: 2

Problem: And for GCUGUCACCGGUGCUUGGUACGUUAUAUUCAGCCGGUCUGAUGAGUCUGCGUACAGACGAAACAGC [GCGUAC] ?
Result: 1.97

Problem: Cool, now GCUGUCACCGGUGCUUGGUACGUUAUAUUCAGCCGGUCUGAUGAGUCUUUAGUUAGACGAAACAGC [UUAGUU]
Result: 1.97

Problem: Also check GCUGUCACCGGUGCUUGGUACGUUAUAUUCAGCCGGUCUGAUGAGUCUUAAGCCAGACGAAACAGC [UAAGCC]
Result: 2

Problem: What do you have for GCUGUCACCGGUGCUUGGUACGUUAUAUUCAGCCGGUCUGAUGAGUCUCUGCUAAGACGAAACAGC [CUGCUA] ?
Result: 2.02

Problem: And GCUGUCACCGGUGCUUGGUACGUUAUAUUCAGCCGGUCUGAUGAGUCUCCUGUAAGACGAAACAGC [CCUGUA] ?
Result: 2.02

Problem: Now this one: GCUGUCACCGGUGCUUGGUACGUUAUAUUCAGCCGGUCUGAUGAGUCUUCUUAUAGACGAAACAGC [UCUUAU]
Result: 2

Problem: Repeat for the following variant: GCUGUCACCGGUGCUUGGUACGUUAUAUUCAGCCGGUCUGAUGAGUCUCCAAUCAGACGAAACAGC [CCAAUC]
Result: 2.03

Problem: Next variant up: GCUGUCACCGGUGCUUGGUACGUUAUAUUCAGCCGGUCUGAUGAGUCUCUGAGGAGACGAAACAGC [CUGAGG]
Result: 1.95

Problem: Follow-up item: GCUGUCACCGGUGCUUGGUACGUUAUAUUCAGCCGGUCUGAUGAGUCUAAAUACAGACGAAACAGC [AAAUAC]
Result: 1.99
